Where these numbers come from: paper PMC11648822

Molecular target: PfATP4 (membranes prepared from 3D7 parasites) (Plasmodium falciparum, UniProt A0A143ZZK9)
Construct: The membranes were prepared from isolated trophozoite‐stage 3D7 parasites; endogenous in cells
Sequence (A0A143ZZK9 whole entry): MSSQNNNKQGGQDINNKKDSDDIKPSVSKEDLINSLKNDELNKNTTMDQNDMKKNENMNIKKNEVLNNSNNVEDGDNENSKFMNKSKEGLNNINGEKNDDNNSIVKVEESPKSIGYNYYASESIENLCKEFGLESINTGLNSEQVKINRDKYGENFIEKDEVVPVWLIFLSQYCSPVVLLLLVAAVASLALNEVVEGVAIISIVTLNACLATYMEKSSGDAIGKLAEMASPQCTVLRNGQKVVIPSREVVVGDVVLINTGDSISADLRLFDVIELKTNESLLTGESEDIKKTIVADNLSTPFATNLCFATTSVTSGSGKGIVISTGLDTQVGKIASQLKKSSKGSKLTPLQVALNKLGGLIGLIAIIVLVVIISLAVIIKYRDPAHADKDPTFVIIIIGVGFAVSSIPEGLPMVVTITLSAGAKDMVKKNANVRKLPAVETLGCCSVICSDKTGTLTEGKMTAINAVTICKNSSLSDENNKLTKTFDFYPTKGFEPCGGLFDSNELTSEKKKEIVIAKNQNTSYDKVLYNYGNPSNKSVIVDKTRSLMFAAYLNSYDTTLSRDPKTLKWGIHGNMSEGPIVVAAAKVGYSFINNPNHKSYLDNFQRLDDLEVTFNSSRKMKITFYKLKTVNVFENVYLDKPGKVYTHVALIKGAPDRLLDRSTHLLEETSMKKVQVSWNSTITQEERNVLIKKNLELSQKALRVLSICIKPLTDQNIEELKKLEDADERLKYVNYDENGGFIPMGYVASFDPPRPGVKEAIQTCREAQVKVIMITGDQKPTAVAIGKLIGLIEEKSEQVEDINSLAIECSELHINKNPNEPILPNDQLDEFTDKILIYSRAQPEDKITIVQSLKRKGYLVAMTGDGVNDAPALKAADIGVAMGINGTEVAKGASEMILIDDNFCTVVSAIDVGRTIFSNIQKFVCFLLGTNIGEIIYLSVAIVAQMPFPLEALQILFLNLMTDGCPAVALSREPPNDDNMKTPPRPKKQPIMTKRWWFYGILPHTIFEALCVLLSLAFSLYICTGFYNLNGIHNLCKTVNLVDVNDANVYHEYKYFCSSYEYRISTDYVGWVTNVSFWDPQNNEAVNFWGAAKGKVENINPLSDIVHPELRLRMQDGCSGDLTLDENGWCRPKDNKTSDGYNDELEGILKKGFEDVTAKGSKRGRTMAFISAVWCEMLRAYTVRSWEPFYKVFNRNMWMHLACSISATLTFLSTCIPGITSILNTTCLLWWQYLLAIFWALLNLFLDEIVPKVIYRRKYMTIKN
Assay: PfATP4 Na+ assay (membrane ATPase), 3D7 membranes
Method: Figure 4 Dihydroquinazolinone analogs 14 and 36 (WJM062) inhibit Na^+‐ATPase activity in membranes prepared from isolated P. falciparum parasites, consistent with them being PfATP4 inhibitors. […] The Pi produced is expressed as a percentage of that measured in the 152 mM Na^+ Control. […] In B−D, the Pi production measured in the low‐[Na^+] (2 mM) condition was subtracted from that measured in high‐[Na^+] […]
readout kind: EC50
Please format your answer as a value with the unit trailing.

Query: Give EC50 for the following molecule: CN1C(=O)c2ccc(Cl)cc2NC1(C)C(=O)Nc1cncc(Cl)c1 (centres unmarked)
Response: 7.2 nM

Query: Specify EC50 for COc1cc(F)c2c(c1)NC(C)(C(=O)Nc1cncc(Cl)c1)N(C)C2=O (centres unmarked) and stop.
Response: 8.6 nM
